- TARGET ENTITY: Potassium voltage-gated channel subfamily KQT member 1 (Homo sapiens) (UniProt P51787)
- Sequence (P51787 whole entry, looked up): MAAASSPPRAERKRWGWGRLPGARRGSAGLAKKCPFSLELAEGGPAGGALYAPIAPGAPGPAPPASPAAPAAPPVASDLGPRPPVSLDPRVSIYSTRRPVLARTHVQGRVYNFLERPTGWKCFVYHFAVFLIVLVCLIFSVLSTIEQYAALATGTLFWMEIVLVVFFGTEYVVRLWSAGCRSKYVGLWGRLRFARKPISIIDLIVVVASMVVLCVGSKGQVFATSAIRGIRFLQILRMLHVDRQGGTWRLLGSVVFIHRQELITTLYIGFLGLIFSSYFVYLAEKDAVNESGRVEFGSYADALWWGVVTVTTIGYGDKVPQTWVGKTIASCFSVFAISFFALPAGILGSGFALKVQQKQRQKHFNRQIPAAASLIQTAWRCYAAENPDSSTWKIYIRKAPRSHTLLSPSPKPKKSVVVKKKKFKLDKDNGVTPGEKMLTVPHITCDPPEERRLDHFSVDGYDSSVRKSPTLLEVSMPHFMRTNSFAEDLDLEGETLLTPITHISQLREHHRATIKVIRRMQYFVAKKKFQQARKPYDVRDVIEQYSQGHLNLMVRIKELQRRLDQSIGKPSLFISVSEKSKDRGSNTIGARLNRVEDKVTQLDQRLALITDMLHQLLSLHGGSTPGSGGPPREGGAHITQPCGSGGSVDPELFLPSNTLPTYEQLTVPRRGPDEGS
- TEST METHOD NOTES: inhibitors of human KCNQ1 channel, primary screen, cell-based, thallium flux, high-throughput (AID 2642);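 also: channel opened by potassium depolarization with thallium stimulus after 20 min compound exposure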
- CONDITIONS USED: CHO-K1 KCNQ1, FluxOR thallium flux fluorescence, at 10 µM
Out of some 310,000 compounds screened, about 3,900 (1.3%) were called active.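 The calls were made as follows: active = compounds whose thallium flux B-score, printed positive for inhibition, exceeds three library SD while starting fluorescence stays within three; inactive = the rest.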 The sample holds actives, similar compounds and a random draw of the others, so the mix is not that of the screen.
Response enum: active, inactive

Examples from the recorded data:
1) CC(C)c1ccccc1OCC(O)CN(CC(O)COc1cccc2ccccc12)C(C)C (stereo unspecified) ... active
2) COc1cccc(NC(=S)NCc2ccco2)c1 ... inactive
3) COc1cc(NC(=S)NCc2ccco2)c(OC)cc1Cl ... inactive
4) CCC(=O)Nc1nc(C)c(C(=O)Nc2cccc(Cl)c2)s1 ... inactive
5) CCOC(=O)CC1COCCN1C(=O)c1cc(COc2ccc(F)c(F)c2)on1 (stereo unspecified) ... inactive

INPUT: Tell me the recorded outcome of this test for CCCc1ccc(-c2c(C)sc(NC(=O)c3ccnn3C)c2C#N)cc1 .
OUTPUT: inactive

INPUT: Query: recorded result category for O=C(c1c(F)cccc1F)N1CCN(c2ncc(Br)cn2)CC1 in this test
OUTPUT: inactive

INPUT: For CCCCSCCCNC(=O)C1CCC(CNS(=O)(=O)c2ccc(NC(C)=O)cc2)CC1 (stereo unspecified) , what call appears in the results of this test?
OUTPUT: inactive

INPUT: Record lookup: outcome of this test for Cc1cc(C(C)(C)C)oc1C(=O)N(CC(=O)NC1CCCC1)Cc1ccc(Cl)cc1 ?
OUTPUT: inactive

INPUT: Look up the recorded call for CCC(C)C(NC(=O)C1CCC(=O)N1C(=O)OCc1ccccc1)C(=O)NC(C(=O)N1CCCC1C(N)=O)C(C)CC (stereo unspecified) in this test.
OUTPUT: inactive

INPUT: Could you kindly confirm the outcome this assay logged for OCCC1CN(Cc2cccc(O)c2)CCN1CCc1ccccc1 (stereo unspecified) ?
OUTPUT: inactive
